Quick reference: MIC of the listed items.
# System: Aspergillus flavus
# test-name: Antifungal activity against Aspergillus flavus ATCC 16870 after 24 hrs by two-fold serial dilution method
# Format: functional
# condition-description: ATCC 16870, 24 h
recorded-endpoint: MIC

# compound, data-value
records = [
    ("COC(=O)C(C)NP(=O)(OCCN(C)c1cc(=O)oc2ccc(C)cc12)Oc1ccccc1 (stereo not drawn)", "128 µg/mL"),
    ("COC(=O)C(Cc1ccccc1)NP(=O)(OCCN(C)c1cc(=O)oc2c(C)cccc12)Oc1ccccc1 (stereo not drawn)", "64 µg/mL"),
    ("COC(=O)C(NP(=O)(OCCN(C)c1cc(=O)oc2c(C)cccc12)Oc1ccccc1)C(C)C (stereo not drawn)", "128 µg/mL"),
]

###

# System: Bacillus spizizenii
# test-name: Antibacterial activity against Bacillus subtilis ATCC 6633 after 24 hrs by two-fold serial dilution method
# Type: functional
# condition-description: ATCC 6633, 24 h
Assign labels as follows, please: 1 for MIC below 60 µg/mL; -1 for MIC equal to or exceeding 60 µg/mL.

# compound, label-value
measured = [
    ("COC(=O)C(Cc1ccccc1)NP(=O)(OCCN(C)c1cc(=O)oc2ccc(C)cc12)Oc1ccccc1 (stereo not given)", -1),
    ("COC(=O)CNP(=O)(OCCN(C)c1cc(=O)oc2c(C)cccc12)Oc1ccccc1 (stereo not given)", -1),
    ("COC(=O)C(Cc1ccccc1)NP(=O)(OCCN(C)c1cc(=O)oc2c(C)cccc12)Oc1ccccc1 (stereo not given)", 1),
    ("COC(=O)C(NP(=O)(OCCN(C)c1cc(=O)oc2cc(C)ccc12)Oc1ccccc1)C(C)C (stereo not given)", 1),
    ("COC(=O)C(NP(=O)(OCCN(C)c1cc(=O)oc2ccccc12)Oc1ccccc1)C(C)C (stereo not given)", -1),
]

###

# System: Bacillus spizizenii
# test-name: Antibacterial activity against Bacillus subtilis ATCC 6633 after 24 hrs by two-fold serial dilution method
# Format: functional
# condition-description: ATCC 6633, 24 h
The following compounds are listed with their measured MIC values.

# compound, units, MIC
measured = [
    ("COC(=O)C(NP(=O)(OCCN(C)c1cc(=O)oc2ccc(C(C)(C)C)cc12)Oc1ccccc1)C(C)C (stereo not drawn)", "mg/L", 16),
    ("COC(=O)C(C)NP(=O)(OCCN(C)c1cc(=O)oc2ccccc12)Oc1ccccc1 (stereo not drawn)", "mg/L", 512),
    ("COC(=O)CNP(=O)(OCCN(C)c1cc(=O)oc2ccccc12)Oc1ccccc1 (stereo not drawn)", "mg/L", 512),
    ("COC(=O)C(C)NP(=O)(OCCN(C)c1cc(=O)oc2ccc(C(C)(C)C)cc12)Oc1ccccc1 (stereo not drawn)", "mg/L", 16),
    ("COC(=O)CNP(=O)(OCCN(C)c1cc(=O)oc2ccc(C)cc12)Oc1ccccc1 (stereo not drawn)", "mg/L", 256),
    ("COC(=O)C(Cc1ccccc1)NP(=O)(OCCN(C)c1cc(=O)oc2cc(C)ccc12)Oc1ccccc1 (stereo not drawn)", "mg/L", 16),
    ("COC(=O)C(C)NP(=O)(OCCN(C)c1cc(=O)oc2ccc(C)cc12)Oc1ccccc1 (stereo not drawn)", "mg/L", 256),
    ("CN[C@@H]1[C@H](O[C@H]2[C@H](O[C@H]3[C@H](O)[C@@H](O)[C@H](N=C(N)N)[C@@H](O)[C@@H]3N=C(N)N)O[C@@H](C)[C@]2(O)C=O)O[C@@H](CO)[C@H](O)[C@H]1O", "mg/L", 4),
]

###

# System: Bacillus spizizenii
# test-name: Antibacterial activity against Bacillus subtilis ATCC 6633 after 24 hrs by two-fold serial dilution method
# Format: functional
# condition-description: ATCC 6633, 24 h
Listed below: MIC values for each entry.

# molecule, MIC / µg/mL
data = [
    ("COC(=O)C(Cc1ccccc1)NP(=O)(OCCN(C)c1cc(=O)oc2ccc(C(C)(C)C)cc12)Oc1ccccc1 (stereo not given)", 32),
    ("COC(=O)CNP(=O)(OCCN(C)c1cc(=O)oc2ccc(C(C)(C)C)cc12)Oc1ccccc1 (stereo not given)", 16),
    ("COC(=O)C(Cc1ccccc1)NP(=O)(OCCN(C)c1cc(=O)oc2ccccc12)Oc1ccccc1 (stereo not given)", 128),
    ("COC(=O)CNP(=O)(OCCN(C)c1cc(=O)oc2cc(C)ccc12)Oc1ccccc1 (stereo not given)", 512),
    ("COC(=O)C(NP(=O)(OCCN(C)c1cc(=O)oc2ccc(C)cc12)Oc1ccccc1)C(C)C (stereo not given)", 16),
]

###

# Test system: Aspergillus flavus
# test-name: Antifungal activity against Aspergillus flavus ATCC 16870 after 24 hrs by two-fold serial dilution method
# Assay type: functional
# condition-description: ATCC 16870, 24 h

# molecule, units, MIC
data = [
    ("COC(=O)C(C)NP(=O)(OCCN(C)c1cc(=O)oc2ccccc12)Oc1ccccc1 (centres undefined)", "µg/mL", 64),
    ("COC(=O)C(Cc1ccccc1)NP(=O)(OCCN(C)c1cc(=O)oc2cc(C)ccc12)Oc1ccccc1 (centres undefined)", "µg/mL", 1),
    ("COC(=O)C(Cc1ccccc1)NP(=O)(OCCN(C)c1cc(=O)oc2ccccc12)Oc1ccccc1 (centres undefined)", "µg/mL", 8),
    ("COC(=O)CNP(=O)(OCCN(C)c1cc(=O)oc2c(C)cccc12)Oc1ccccc1 (centres undefined)", "µg/mL", 64),
    ("COC(=O)C(C)NP(=O)(OCCN(C)c1cc(=O)oc2c(C)cccc12)Oc1ccccc1 (centres undefined)", "µg/mL", 64),
    ("COC(=O)C(NP(=O)(OCCN(C)c1cc(=O)oc2ccccc12)Oc1ccccc1)C(C)C (centres undefined)", "µg/mL", 16),
    ("COC(=O)CNP(=O)(OCCN(C)c1cc(=O)oc2ccccc12)Oc1ccccc1 (centres undefined)", "µg/mL", 128),
    ("COC(=O)C(NP(=O)(OCCN(C)c1cc(=O)oc2ccc(C(C)(C)C)cc12)Oc1ccccc1)C(C)C (centres undefined)", "µg/mL", 2),
    ("OC(Cn1cncn1)(Cn1cncn1)c1ccc(F)cc1F [FLUCONAZOLE]", "µg/mL", 32),
    ("COC(=O)C(Cc1ccccc1)NP(=O)(OCCN(C)c1cc(=O)oc2ccc(C)cc12)Oc1ccccc1 (centres undefined)", "µg/mL", 64),
    ("COC(=O)C(NP(=O)(OCCN(C)c1cc(=O)oc2cc(C)ccc12)Oc1ccccc1)C(C)C (centres undefined)", "µg/mL", 128),
    ("COC(=O)CNP(=O)(OCCN(C)c1cc(=O)oc2ccc(C)cc12)Oc1ccccc1 (centres undefined)", "µg/mL", 64),
    ("COC(=O)CNP(=O)(OCCN(C)c1cc(=O)oc2ccc(C(C)(C)C)cc12)Oc1ccccc1 (centres undefined)", "µg/mL", 64),
    ("NC(=O)OC[C@H](O)[C@@H](O)[C@H](N)C(=O)N[C@H](C(=O)O)[C@H]1O[C@@H](n2cc(CO)c(=O)[nH]c2=O)[C@H](O)[C@@H]1O [POLYOXIN B]", "µg/mL", 64),
    ("COC(=O)CNP(=O)(OCCN(C)c1cc(=O)oc2cc(C)ccc12)Oc1ccccc1 (centres undefined)", "µg/mL", 64),
    ("COC(=O)C(C)NP(=O)(OCCN(C)c1cc(=O)oc2cc(C)ccc12)Oc1ccccc1 (centres undefined)", "µg/mL", 64),
    ("COC(=O)C(NP(=O)(OCCN(C)c1cc(=O)oc2ccc(C)cc12)Oc1ccccc1)C(C)C (centres undefined)", "µg/mL", 128),
    ("COC(=O)C(C)NP(=O)(OCCN(C)c1cc(=O)oc2ccc(C(C)(C)C)cc12)Oc1ccccc1 (centres undefined)", "µg/mL", 16),
    ("COC(=O)C(Cc1ccccc1)NP(=O)(OCCN(C)c1cc(=O)oc2ccc(C(C)(C)C)cc12)Oc1ccccc1 (centres undefined)", "µg/mL", 2),
]

###

# System: Candida tropicalis
# test-name: Inhibition of Candida tropicalis ATCC 750 chitin synthase using UDP-GlcNAc as substrate at 300 ug/ml after 60 mins by microplate reader method
Property: inhibition; scope: individual compounds

# compound, inhibition [%]
records = [
    ("COC(=O)CNP(=O)(OCCN(C)c1cc(=O)oc2ccc(C)cc12)Oc1ccccc1 (stereo unspecified)", 51),
    ("COC(=O)CNP(=O)(OCCN(C)c1cc(=O)oc2ccc(C(C)(C)C)cc12)Oc1ccccc1 (stereo unspecified)", 50),
    ("COC(=O)C(C)NP(=O)(OCCN(C)c1cc(=O)oc2cc(C)ccc12)Oc1ccccc1 (stereo unspecified)", 45),
    ("COC(=O)C(C)NP(=O)(OCCN(C)c1cc(=O)oc2c(C)cccc12)Oc1ccccc1 (stereo unspecified)", 64),
    ("COC(=O)C(NP(=O)(OCCN(C)c1cc(=O)oc2ccc(C(C)(C)C)cc12)Oc1ccccc1)C(C)C (stereo unspecified)", 62),
    ("COC(=O)C(Cc1ccccc1)NP(=O)(OCCN(C)c1cc(=O)oc2ccc(C)cc12)Oc1ccccc1 (stereo unspecified)", 43),
    ("COC(=O)C(C)NP(=O)(OCCN(C)c1cc(=O)oc2ccccc12)Oc1ccccc1 (stereo unspecified)", 77),
    ("COC(=O)C(Cc1ccccc1)NP(=O)(OCCN(C)c1cc(=O)oc2cc(C)ccc12)Oc1ccccc1 (stereo unspecified)", 56),
    ("COC(=O)C(Cc1ccccc1)NP(=O)(OCCN(C)c1cc(=O)oc2ccc(C(C)(C)C)cc12)Oc1ccccc1 (stereo unspecified)", 90),
    ("COC(=O)C(NP(=O)(OCCN(C)c1cc(=O)oc2cc(C)ccc12)Oc1ccccc1)C(C)C (stereo unspecified)", 38),
    ("COC(=O)C(NP(=O)(OCCN(C)c1cc(=O)oc2ccccc12)Oc1ccccc1)C(C)C (stereo unspecified)", 54),
    ("COC(=O)CNP(=O)(OCCN(C)c1cc(=O)oc2ccccc12)Oc1ccccc1 (stereo unspecified)", 49),
    ("COC(=O)C(C)NP(=O)(OCCN(C)c1cc(=O)oc2ccc(C(C)(C)C)cc12)Oc1ccccc1 (stereo unspecified)", 62),
    ("COC(=O)C(NP(=O)(OCCN(C)c1cc(=O)oc2c(C)cccc12)Oc1ccccc1)C(C)C (stereo unspecified)", 45),
    ("COC(=O)CNP(=O)(OCCN(C)c1cc(=O)oc2c(C)cccc12)Oc1ccccc1 (stereo unspecified)", 55),
    ("COC(=O)C(Cc1ccccc1)NP(=O)(OCCN(C)c1cc(=O)oc2c(C)cccc12)Oc1ccccc1 (stereo unspecified)", 48),
    ("COC(=O)C(C)NP(=O)(OCCN(C)c1cc(=O)oc2ccc(C)cc12)Oc1ccccc1 (stereo unspecified)", 61),
    ("COC(=O)CNP(=O)(OCCN(C)c1cc(=O)oc2cc(C)ccc12)Oc1ccccc1 (stereo unspecified)", 59),
    ("NC(=O)OC[C@H](O)[C@@H](O)[C@H](N)C(=O)N[C@H](C(=O)O)[C@H]1O[C@@H](n2cc(CO)c(=O)[nH]c2=O)[C@H](O)[C@@H]1O", 82),
    ("COC(=O)C(Cc1ccccc1)NP(=O)(OCCN(C)c1cc(=O)oc2ccccc12)Oc1ccccc1 (stereo unspecified)", 59),
    ("COC(=O)C(NP(=O)(OCCN(C)c1cc(=O)oc2ccc(C)cc12)Oc1ccccc1)C(C)C (stereo unspecified)", 41),
]
